- Assay: folding enthalpy; higher = less favourable; fluorescence melt of hairpins on a sequencing array, two-state fit
- Measurement context: sodium 0.088 M
Endpoint: folding enthalpy (kJ/mol)
Lab book: enter the figure in kJ/mol, no units written.

Sample records with folding enthalpy:
- Sequence text: "GTTGCCGGAAACGGTAGC (.(.(((....))).).)"
  folding enthalpy (kJ/mol): -71.9
- Sequence text: "GATCTAGTCATAGATC ((((((....))))))"
  folding enthalpy (kJ/mol): -161
- Sequence text: "GATGCAGCGAAAGCTATC (((..(((....))))))"
  folding enthalpy (kJ/mol): -37.9
- Sequence text: "CGTATCGGAAACGAAACG (((.(((....))).)))"
  folding enthalpy (kJ/mol): -157
- Sequence text: "GCCTCTGGAAACGGAGGC (((((.(....).)))))"
  folding enthalpy (kJ/mol): -170

Return reported folding enthalpy. Input sequence: GATCGTGACAACGATC ((((((....))))))
-161

Give the value of folding enthalpy reported for the following: GTTCAGCCGAAAGGCAAC (((..(((....))))))
-30.9

Name the recorded folding enthalpy of the item GCTTACGAAAGTACCAGC ((((((....)))..))) in your answer.
-55.3

----------
- Assay: folding enthalpy; higher = less favourable; fluorescence melt of hairpins on a sequencing array, two-state fit
- Measurement context: sodium 0.088 M
Use true (1) when the recorded folding enthalpy is no lower than -30 kcal/mol; use false (0) when it is lower.

Examples from the recorded data:
- Sequence text: "GATCGTTTACACGATC ((((((....))))))"
  Classification: "false (0)"
- Sequence text: "GATCTTGCGAAGATC ((((((...))))))"
  Classification: "true (1)"
- Sequence text: "GCCAGGCGAAAGCCATGC ((..(((....)))..))"
  Classification: "true (1)"
- Sequence text: "GCAAGGCGAAAGCATGGC ((.(.((....)).).))"
  Classification: "true (1)"
- Sequence text: "GATCATCTTATGATC ((((((...))))))"
  Classification: "false (0)"
- Sequence text: "GTGGCAGGAAACCGCCAC (((((.(....).)))))"
  Classification: "false (0)"
- Sequence text: "GCGGGTGGAAACGTCCGC ((((..(....)..))))"
  Classification: "false (0)"
- Sequence text: "GCAGGACGAAAGTCTGC (((.(((....))))))"
  Classification: "false (0)"
- Sequence text: "GCACTGCGAAAGCAGAGC ((.((((....)))).))"
  Classification: "true (1)"
- Sequence text: "GCGCATCGAAAGATCCGC (((.(((....))).)))"
  Classification: "true (1)"

For this sequence, is measured folding enthalpy -30 kcal/mol or higher? GTGGACGGAAACGTTCGC (.(.(((....))).).)
true (1)

Please indicate if the recorded folding enthalpy for GCCTTGACGAAAGTCGGC (((..(((....)))))) meets or exceeds -30 kcal/mol.
true (1)

----------
- Assay: melting temperature; fluorescence melt of hairpins on a sequencing array, two-state fit, raised by 9.35 °C to match UV melts
- Measurement context: sodium 0.088 M
Endpoint: Tm (°C)
Give the quantity in °C, number only.

Look up and state reported Tm for GATATTGGAAACAATATC (((((((....)))))))
48.8

Check the records and state Tm for GATCCTCAGTAGGATC ((((((....))))))
49.9

----------
Measured Tm, listed per entry for reference.
- Assay: melting temperature; fluorescence melt of hairpins on a sequencing array, two-state fit, raised by 9.35 °C to match UV melts
- Measurement context: sodium 0.088 M
Give your result in °C as a bare value.

- Sequence text: "GGCCCGCGAAAGCGCGCC (((.(((....))).)))"
  Unit info: "°C"
  Result value: 64.4

Determine its reported Tm: GATCCACTCTTGGATC ((((((....))))))
51

Specify Tm for GCGGCATCGAAAGATCGC (((..(((....)))))) and stop.
45.6

Given GATCTTAATTAAGATC ((((((....)))))) , respond with its Tm.
44.7

Consider the sequence GGTTCCCCGAAAGGGACC (((..(((....)))))) . State its measured Tm.
45

For GATCGGATGGCCGATC ((((((....)))))) , write its Tm.
56.1

Annotate the sequence GTAACTCGAAAGAGATAC (((.(((....))).))) with its measured Tm.
42

Provide only the value of recorded Tm for GAACTAGGAAACCAGTTC (((((.(....).)))))
33.9

Give me measured Tm, please, for this sequence: GCGCGAGCGAAAGCTCGC (((..(((....))))))
69.1

Respond only with Tm recorded for GCTCGCGAAAGCGTAGC ((((((....))).)))
61.9

Tell me its Tm given GATCCGAACTCGGATC ((((((....)))))) as the entry.
56.4

Report Tm for GGCTTAGGAAACTAAACC ((.((((....)))).))
31.8

Provide Tm value for the following sequence: GAGGATGGAAACACCCTC ((((.((....)).))))
38.1

Consider the sequence GTTATGCGAAAGCAAAAC (((.(((....))).))) and give its recorded Tm.
41.2

Give the value of Tm reported for the following: GACAATGAAAATTGTC ((((((....))))))
51.6

Identify measured Tm corresponding to GGTTAAGGAAACTTAACC (((((((....)))))))
52.7

Quickly give me recorded Tm for GCAAAGCGAAAGCTCCGC ((..(((....)))..))
29

----------
- Assay: folding enthalpy; higher = less favourable; fluorescence melt of hairpins on a sequencing array, two-state fit
- Measurement context: sodium 0.088 M
Endpoint: folding enthalpy (kcal/mol)
Field format: number, assumed kcal/mol, no unit text.

- Sequence text: "GCGCTCGAAAGAGTTCGC ((((((....)))..)))"
  Unit info: "kcal/mol"
  folding enthalpy: -22.1
- Sequence text: "GATCGTTCAAACGATC ((((((....))))))"
  Unit info: "kcal/mol"
  folding enthalpy: -42.7
- Sequence text: "GATCACAGTTGTGATC ((((((....))))))"
  Unit info: "kcal/mol"
  folding enthalpy: -35.7
- Sequence text: "GCGTCTGGAAACAGACAC (.(((((....))))).)"
  Unit info: "kcal/mol"
  folding enthalpy: -12.8

Note down folding enthalpy recorded for GCGGGATCGAAAGATCGC (((..(((....))))))
-13.8

Look up and state reported folding enthalpy for GGACACGAAAGTGCTCC ((((((....))).)))
-22.5

Supply measured folding enthalpy of GATCCTATCAAGGATC ((((((....)))))) in your reply.
-34.3

Let me know recorded folding enthalpy for GTCCCGGGAAACCAGGAC ((((.((....)).)))) , thanks.
-22.7

Tell me its folding enthalpy given GTAAGCGAAAGCTGTAC ((((((....))).))) as the entry.
-15.7

Return folding enthalpy (reported value) for this sequence: GTTCTGGGAAACCGGAAC ((((.((....)).))))
-41.5

----------
- Assay: folding enthalpy; higher = less favourable; fluorescence melt of hairpins on a sequencing array, two-state fit
- Measurement context: sodium 0.088 M
Endpoint: folding enthalpy (kcal/mol)
Quick reminder: number only, in kcal/mol, skip the unit.

- Sequence text: "GCGGGAGTCCGC ((((....))))"
  Endpoint: "folding enthalpy"
  Unit info: "kcal/mol"
  Result value: -23.6
- Sequence text: "GGGCGCGAAAGCGATCCC ((((((....)))..)))"
  Endpoint: "folding enthalpy"
  Unit info: "kcal/mol"
  Result value: -14.3
- Sequence text: "GCACCGCGAAAGCCGCGC ((.(.((....)).).))"
  Endpoint: "folding enthalpy"
  Unit info: "kcal/mol"
  Result value: -16.8
- Sequence text: "GGTCGCCGAAAGGCTACC (((.(((....))).)))"
  Endpoint: "folding enthalpy"
  Unit info: "kcal/mol"
  Result value: -21.2
- Sequence text: "GCTACGGGAAACCACAGC (((..((....))..)))"
  Endpoint: "folding enthalpy"
  Unit info: "kcal/mol"
  Result value: -21.4
- Sequence text: "GCGTCAGGAAACTGATGC ((.((((....)))).))"
  Endpoint: "folding enthalpy"
  Unit info: "kcal/mol"
  Result value: -43.6
- Sequence text: "GAATTACGAAAGTACTTC (((.(((....))).)))"
  Endpoint: "folding enthalpy"
  Unit info: "kcal/mol"
  Result value: -20.1
- Sequence text: "GATTCGAAAGAATC (((((....)))))"
  Endpoint: "folding enthalpy"
  Unit info: "kcal/mol"
  Result value: -29.7

Specify folding enthalpy for GCGCACGAAAGTGACCGC ((((((....)))..))) and stop.
-21.9

Supply measured folding enthalpy of GCGAGGCATCGC ((((....)))) in your reply.
-26.3

Tell me folding enthalpy reported for GCCACCGAAAGGTCGGC ((((((....))).)))
-29.9

Give folding enthalpy for the following sequence: GCAGCCGAAAGGCCGTGC ((((((....)))..)))
-13.3

Origin of values: the array DNA melting data of Ke et al. (doi:10.1101/2024.01.08.574731)
